Assay: Alkali metal dependent formation of 1,5-cz-Lig and 1,4-cz-Lig isomers from Lig at pH 10.2 (Chart 14)
Format: physicochemical
Details: B: 1 day at 80° C.; Borate/(M^I)2CO3 buffer pH 10.2
Documented conversion to 1,4-cz-Lig isomer, K^I across a set of molecules

{"molecule": "C#CCNC(=O)CN1CCN(CC(=O)O)CCN(Cc2cc(-c3ccccc3)cc(CN=[N+]=[N-])n2)CCN(CC(=O)O)CC1 [TD425]", "conversion to 1,4-cz-Lig isomer, K^I, %": 10}
{"molecule": "C#Cc1cccc(CN2CCN(CP(=O)(O)OCC)CCN(Cc3cccc(CN=[N+]=[N-])n3)CCN(CP(=O)(O)OCC)CC2)n1 [TD582]", "conversion to 1,4-cz-Lig isomer, K^I, %": 25}
{"molecule": "C#Cc1cccc(CN2CCNCCN(Cc3cccc(CN=[N+]=[N-])n3)CCN(CC(=O)O)CC2)n1 [TD703]", "conversion to 1,4-cz-Lig isomer, K^I, %": 20}

###

Test: Dissociation of chelates in aq. 1.0M HCl at 80° C. (acid decomplexation kinetic inertness) (Chart 18)
Format: physicochemical
Settings: 1 hour
The entries below are paired with their reported fraction of intact chelate.

{"smiles": "O=C1C[N@@]2CC[N@]3CC[N@@](CC[N@](CC2)Cc2cccc(n2)-c2cnnn2Cc2cc(-c4ccccc4)cc(n2)C3)CC(=O)[O][Ce][O]1", "fraction of intact chelate [%]": 0}
{"smiles": "O=C1C[N@@]2CC[N@]3CC[N@@](CC[N@](CC2)Cc2cccc(n2)-c2cn(nn2)Cc2cc(-c4ccccc4)cc(n2)C3)CC(=O)[O][Lu][O]1", "fraction of intact chelate [%]": 0}
{"smiles": "O=C1C[N@@]2CC[N@]3CC[N@@](CC[N@](CC2)Cc2cccc(n2)-c2cnnn2Cc2cc(-c4ccccc4)cc(n2)C3)CC(=O)[O][Cd][O]1", "fraction of intact chelate [%]": 100}
{"smiles": "O=C1C[N@@]2CC[N@]3CC[N@@](CC[N@](CC2)Cc2cccc(n2)-c2cn(nn2)Cc2cc(-c4ccccc4)cc(n2)C3)CC(=O)[O][Cd][O]1", "fraction of intact chelate [%]": 0}
{"smiles": "O=C1C[N@@]2CC[N@]3CC[N@@](CC[N@](CC2)Cc2cccc(n2)-c2cnnn2Cc2cc(-c4ccccc4)cc(n2)C3)CC(=O)[O][Tm][O]1", "fraction of intact chelate [%]": 100}
{"smiles": "O=C1C[N@@]2CC[N@]3CC[N@@](CC[N@](CC2)Cc2cccc(n2)-c2cnnn2Cc2cc(-c4ccccc4)cc(n2)C3)CC(=O)[O][Tb][O]1", "fraction of intact chelate [%]": 99}

###

Assay: Formation of 1,5-cz-[M(Lig)] from Lig and M^III ions (metal dependent click-zip) (Charts 4, 5)
Format: physicochemical
Conditions: 1 week at 80° C.; MOPS/NaOH buffer pH 7.0; TD728, TD827 in 50% i-PrOH

{"smiles": "[N-]=[N+]=NCc1cccc(CN2CCN(CC(=O)O)CCN(Cc3cccc(C#CC45CC6CC(CC(C6)C4)C5)n3)CCN(CC(=O)O)CC2)n1", "conversion to 1,5-cz-[M(Lig)], Sc^III (%)": 2}
{"smiles": "C#Cc1cccc(CN2CCN(CC(=O)O)CCN(Cc3cc(-c4ccccc4)cc(CN=[N+]=[N-])n3)CCN(CC(=O)O)CC2)n1", "conversion to 1,5-cz-[M(Lig)], Sc^III (%)": 35}
{"smiles": "C#Cc1cccc(CN2CCN(CC(=O)O)CCN(Cc3cc(C#C[Si](C(C)C)(C(C)C)C(C)C)cc(CN=[N+]=[N-])n3)CCN(CC(=O)O)CC2)n1", "conversion to 1,5-cz-[M(Lig)], Sc^III (%)": 55}
{"smiles": "C#Cc1cccc(CN2CCN(CC(=O)O)CCN(Cc3cc(C(=O)OC(C)C)cc(CN=[N+]=[N-])n3)CCN(CC(=O)O)CC2)n1", "conversion to 1,5-cz-[M(Lig)], Sc^III (%)": 0}
{"smiles": "[N-]=[N+]=NCc1cccc(CN2CCN(CC(=O)O)CCN(Cc3cccc(C#CI)n3)CCN(CC(=O)O)CC2)n1", "conversion to 1,5-cz-[M(Lig)], Sc^III (%)": 16}
{"smiles": "C#Cc1cccc(CN2CCN(CC(N)=O)CCN(Cc3cc(-c4ccccc4)cc(CN=[N+]=[N-])n3)CCN(CC(N)=O)CC2)n1", "conversion to 1,5-cz-[M(Lig)], Sc^III (%)": 0}
{"smiles": "C#Cc1cccc(CN2CCN(CC(=O)O)CCN(Cc3cc(-c4ccc(C(=O)O)cc4)cc(CN=[N+]=[N-])n3)CCN(CC(=O)O)CC2)n1", "conversion to 1,5-cz-[M(Lig)], Sc^III (%)": 52}
{"smiles": "C#Cc1cccc(CN2CCN(CC(=O)O)CCN(Cc3cccc(CN=[N+]=[N-])n3)CCN(CC(=O)O)CC2)n1", "conversion to 1,5-cz-[M(Lig)], Sc^III (%)": 23}
{"smiles": "C#Cc1cccc(CN2CCN(CP(=O)(O)c3ccccc3)CCN(Cc3cccc(CN=[N+]=[N-])n3)CCN(CP(=O)(O)c3ccccc3)CC2)n1", "conversion to 1,5-cz-[M(Lig)], Sc^III (%)": 0}
{"smiles": "C#Cc1cccc(CN2CCN(CC(=O)O)CCN(Cc3cc(N(C)C)cc(CN=[N+]=[N-])n3)CCN(CC(=O)O)CC2)n1", "conversion to 1,5-cz-[M(Lig)], Sc^III (%)": 31}
{"smiles": "CC(C)(C)C#Cc1cccc(CN2CCN(CC(=O)O)CCN(Cc3cccc(CN=[N+]=[N-])n3)CCN(CC(=O)O)CC2)n1", "conversion to 1,5-cz-[M(Lig)], Sc^III (%)": 1}
{"smiles": "[N-]=[N+]=NCc1cccc(CN2CCN(CC(=O)O)CCN(Cc3cccc(C#CC4CC4)n3)CCN(CC(=O)O)CC2)n1", "conversion to 1,5-cz-[M(Lig)], Sc^III (%)": 5}
{"smiles": "C#CCNC(=O)CN1CCN(CC(=O)O)CCN(Cc2cc(-c3ccccc3)cc(CN=[N+]=[N-])n2)CCN(CC(=O)O)CC1", "conversion to 1,5-cz-[M(Lig)], Sc^III (%)": 0}

###

Assay: Formation of 1,5-cz-[Ln(Lig)] from Lig and Ln^III ions (metal dependent click-zip), MOPS/NaOH buffer pH 7.0, analytical HPLC (Charts 1, 2)
Conditions: Tb^III; after 1 week at 80° C.; MOPS/NaOH buffer pH 7.0
quantity_measured: conversion to 1,5-cz-[Ln(Lig)] with hydrolysed group in the side chain, Tb^III (%)

{"smiles": "C#Cc1cccc(CN2CCN(CC(=O)O)CCN(Cc3cc(C(=O)OC)cc(CN=[N+]=[N-])n3)CCN(CC(=O)O)CC2)n1", "readout_number": 93}
{"smiles": "C#Cc1cccc(CN2CCN(CC(=O)O)CCN(Cc3cc(C(=O)OC(C)C)cc(CN=[N+]=[N-])n3)CCN(CC(=O)O)CC2)n1", "readout_number": 91}
{"smiles": "C#Cc1cccc(CN2CCN(CC(=O)O)CCN(Cc3cc(C(=O)OC(C)(C)C)cc(CN=[N+]=[N-])n3)CCN(CC(=O)O)CC2)n1", "readout_number": 89}
{"smiles": "CC(C)(C#Cc1cccc(CN2CCN(CC(=O)O)CCN(Cc3cccc(CN=[N+]=[N-])n3)CCN(CC(=O)O)CC2)n1)NC(=O)OC(C)(C)C", "readout_number": 74}

###

Experiment: Dissociation of chelates in aq. 0.1M HCl at RT (acid decomplexation kinetic inertness) (Chart 20)
Format: physicochemical
Details: 1 week
quantity_measured: fraction of intact chelate (%)

{"smiles": "O=C1C[N@@]2CC[N@]3CC[N@@](CC[N@](CC2)Cc2cccc(n2)-c2cn(nn2)Cc2cc(-c4ccccc4)cc(n2)C3)CC(=O)[O][Cd][O]1", "quantity_measured": "fraction of intact chelate", "readout_number": 91}
{"smiles": "O=C1C[N@@]2CC[N@]3CC[N@@](CC[N@](CC2)Cc2cccc(n2)-c2cnnn2Cc2cc(-c4ccccc4)cc(n2)C3)CC(=O)[O][Yb][O]1", "quantity_measured": "fraction of intact chelate", "readout_number": 100}
{"smiles": "O=C1C[N@@]2CC[N@]3CC[N@@](CC[N@](CC2)Cc2cccc(n2)-c2cnnn2Cc2cc(-c4ccccc4)cc(n2)C3)CC(=O)[O][Y][O]1", "quantity_measured": "fraction of intact chelate", "readout_number": 100}
{"smiles": "O=C1C[N@@]2CC[N@]3CC[N@@](CC[N@](CC2)Cc2cccc(n2)-c2cnnn2Cc2cc(-c4ccccc4)cc(n2)C3)CC(=O)[O][La][O]1", "quantity_measured": "fraction of intact chelate", "readout_number": 0}
